Assay: In vivo toxicological study in rats: haematology
Design: species or system rats of the Wistar strain
Settings: female, 30 mg/kg oral daily 7 d
readout name: HCT (%)
The response must be a number in % with no trailing unit.

HCT recorded for this molecule, COc1ccc(C(=O)Nc2sc3c(c2C#N)CCCCC3)cc1OC [PKL-A135] , is 41.7

HCT recorded for this molecule, N#Cc1c(NC(=O)c2cccc3ccccc23)sc2c1CCN(CC(=O)Nc1cccc(Br)c1)C2 [PKL-B171] , is 43.0

HCT recorded for this molecule, N#Cc1c(NC(=O)c2cccc3ccccc23)sc2c1CCN(C(=O)Nc1ccccc1OC(F)(F)F)C2 [PKL-A159] , is 40.3

HCT recorded for this molecule, COc1ccccc1NC(=O)N1CCc2c(sc(NC(=O)c3cccc4ccccc34)c2C#N)C1 [PKL-A152] , is 41.5

---

Assay: In vivo toxicological study in rats: haematology
Set-up: species or system rats of the Wistar strain
Details: male, 300 mg/kg oral daily 7 d
Field: HGB. Provide a value for each of the molecules that follow.
The response must be a number in g/dL with no trailing unit.

HGB recorded for this molecule, `COc1ccccc1NC(=O)N1CCc2c(sc(NC(=O)c3cccc4ccccc34)c2C#N)C1` , is 15.4

HGB recorded for this molecule, `N#Cc1c(NC(=O)c2cccc3ccccc23)sc2c1CCN(CC(=O)Nc1cccc(Br)c1)C2` , is 15.4

HGB recorded for this molecule, `COc1ccc(C(=O)Nc2sc3c(c2C#N)CCCCC3)cc1OC` , is 14.9

HGB recorded for this molecule, `N#Cc1c(NC(=O)c2cccc3ccccc23)sc2c1CCN(C(=O)Nc1ccccc1OC(F)(F)F)C2` , is 14.8

---

Assay: In vivo toxicological study in rats: haematology
Design: species or system rats of the Wistar strain
Conditions: male, 100 mg/kg oral daily 7 d
Field: MCH. Provide a value for each of the molecules that follow.
The response must be a number in pg with no trailing unit.

MCH recorded for this molecule, COc1ccccc1NC(=O)N1CCc2c(sc(NC(=O)c3cccc4ccccc34)c2C#N)C1 [PKL-A152] , is 19.8

MCH recorded for this molecule, N#Cc1c(NC(=O)c2cccc3ccccc23)sc2c1CCN(CC(=O)Nc1cccc(Br)c1)C2 [PKL-B171] , is 20.1

MCH recorded for this molecule, COc1ccc(C(=O)Nc2sc3c(c2C#N)CCCCC3)cc1OC [PKL-A135] , is 19.6

MCH recorded for this molecule, N#Cc1c(NC(=O)c2cccc3ccccc23)sc2c1CCN(C(=O)Nc1ccccc1OC(F)(F)F)C2 [PKL-A159] , is 19.9

---

Assay: In vivo toxicological study in rats: haematology
Set-up: species or system rats of the Wistar strain
Conditions: female, 100 mg/kg oral daily 7 d
Field: MCH. Provide a value for each of the compounds that follow.

MCH recorded for this compound, `COc1ccccc1NC(=O)N1CCc2c(sc(NC(=O)c3cccc4ccccc34)c2C#N)C1` , is 19.5 pg

MCH recorded for this compound, `N#Cc1c(NC(=O)c2cccc3ccccc23)sc2c1CCN(C(=O)Nc1ccccc1OC(F)(F)F)C2` , is 18.9 pg

MCH recorded for this compound, `N#Cc1c(NC(=O)c2cccc3ccccc23)sc2c1CCN(CC(=O)Nc1cccc(Br)c1)C2` , is 19.7 pg

MCH recorded for this compound, `COc1ccc(C(=O)Nc2sc3c(c2C#N)CCCCC3)cc1OC` , is 19.9 pg
